biological target: recombinant human AChE (Homo sapiens, UniProt P22303); assay: biochemical
Sequence (P22303 32-614): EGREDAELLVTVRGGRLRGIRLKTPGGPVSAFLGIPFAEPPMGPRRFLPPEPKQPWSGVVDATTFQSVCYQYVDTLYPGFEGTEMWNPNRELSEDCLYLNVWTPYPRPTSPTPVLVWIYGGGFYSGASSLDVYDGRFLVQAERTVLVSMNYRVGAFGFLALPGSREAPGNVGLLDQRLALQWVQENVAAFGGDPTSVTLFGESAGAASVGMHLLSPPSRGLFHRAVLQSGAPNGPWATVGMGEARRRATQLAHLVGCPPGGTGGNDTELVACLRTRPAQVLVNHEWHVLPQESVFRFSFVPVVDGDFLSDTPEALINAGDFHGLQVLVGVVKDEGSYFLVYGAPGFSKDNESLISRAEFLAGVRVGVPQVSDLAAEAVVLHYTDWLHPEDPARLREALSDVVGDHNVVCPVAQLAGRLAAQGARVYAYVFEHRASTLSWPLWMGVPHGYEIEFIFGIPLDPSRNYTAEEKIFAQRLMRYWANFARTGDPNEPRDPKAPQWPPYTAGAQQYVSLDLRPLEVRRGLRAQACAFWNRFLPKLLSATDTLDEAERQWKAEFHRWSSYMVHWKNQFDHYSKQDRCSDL
Counter-ions that a name gives are not always drawn.
Catalogue of Efficacy values

- MOLECULE: "Oc1ccc(C(O)CNCCCCCCNCC(O)c2ccc(O)c(O)c2)cc1O (stereo not drawn) [Hexoprenaline sulfate]"
  SYSTEM: "recombinant human AChE (Homo sapiens, UniProt P22303)"
  Efficacy: 0
- MOLECULE: "COP(=O)(OC)O/C(C)=C/C(=O)N(C)C [Dicrotophos]"
  SYSTEM: "recombinant human AChE (Homo sapiens, UniProt P22303)"
  Efficacy: -67.448
- MOLECULE: "COc1ccc(OC(F)(F)F)cc1CN[C@H]1CCCN[C@H]1c1ccccc1 [CP-122721, reference compound]"
  SYSTEM: "recombinant human AChE (Homo sapiens, UniProt P22303)"
  Efficacy: 0
- MOLECULE: "O=S(=O)([O-])SSS(=O)(=O)[O-].[K+].[K+] [Potassium tetrathionate]"
  SYSTEM: "recombinant human AChE (Homo sapiens, UniProt P22303)"
  Efficacy: -73.38
- MOLECULE: "Cc1ccc2c(c1)OCC(=O)CO2 [7-Methyl-2H-1,5-benzodioxepin-3(4H)-one]"
  SYSTEM: "recombinant human AChE (Homo sapiens, UniProt P22303)"
  Efficacy: -48.628
- MOLECULE: "CNC(=O)Oc1ccccc1C(C)C [Isoprocarb]"
  SYSTEM: "recombinant human AChE (Homo sapiens, UniProt P22303)"
  Efficacy: -91.575
- MOLECULE: "Cc1nc(N(C)C)nc(OC(=O)N(C)C)c1C [Pirimicarb]"
  SYSTEM: "recombinant human AChE (Homo sapiens, UniProt P22303)"
  Efficacy: -85.325
- MOLECULE: "CNC(=O)/C=C(\\C)OP(=O)(OC)OC [Monocrotophos]"
  SYSTEM: "recombinant human AChE (Homo sapiens, UniProt P22303)"
  Efficacy: -46.284
- MOLECULE: "N#Cc1sc2c(=O)c3ccccc3c(=O)c=2sc1C#N [Dithianon]"
  SYSTEM: "recombinant human AChE (Homo sapiens, UniProt P22303)"
  Efficacy: -13.233

Cited source for all entries: paper PMC8041433
